Data credit: patent US10221177B2

target of assay: human TRPA1 (Homo sapiens (Human), UniProt O75762)
Sequence (O75762 whole entry): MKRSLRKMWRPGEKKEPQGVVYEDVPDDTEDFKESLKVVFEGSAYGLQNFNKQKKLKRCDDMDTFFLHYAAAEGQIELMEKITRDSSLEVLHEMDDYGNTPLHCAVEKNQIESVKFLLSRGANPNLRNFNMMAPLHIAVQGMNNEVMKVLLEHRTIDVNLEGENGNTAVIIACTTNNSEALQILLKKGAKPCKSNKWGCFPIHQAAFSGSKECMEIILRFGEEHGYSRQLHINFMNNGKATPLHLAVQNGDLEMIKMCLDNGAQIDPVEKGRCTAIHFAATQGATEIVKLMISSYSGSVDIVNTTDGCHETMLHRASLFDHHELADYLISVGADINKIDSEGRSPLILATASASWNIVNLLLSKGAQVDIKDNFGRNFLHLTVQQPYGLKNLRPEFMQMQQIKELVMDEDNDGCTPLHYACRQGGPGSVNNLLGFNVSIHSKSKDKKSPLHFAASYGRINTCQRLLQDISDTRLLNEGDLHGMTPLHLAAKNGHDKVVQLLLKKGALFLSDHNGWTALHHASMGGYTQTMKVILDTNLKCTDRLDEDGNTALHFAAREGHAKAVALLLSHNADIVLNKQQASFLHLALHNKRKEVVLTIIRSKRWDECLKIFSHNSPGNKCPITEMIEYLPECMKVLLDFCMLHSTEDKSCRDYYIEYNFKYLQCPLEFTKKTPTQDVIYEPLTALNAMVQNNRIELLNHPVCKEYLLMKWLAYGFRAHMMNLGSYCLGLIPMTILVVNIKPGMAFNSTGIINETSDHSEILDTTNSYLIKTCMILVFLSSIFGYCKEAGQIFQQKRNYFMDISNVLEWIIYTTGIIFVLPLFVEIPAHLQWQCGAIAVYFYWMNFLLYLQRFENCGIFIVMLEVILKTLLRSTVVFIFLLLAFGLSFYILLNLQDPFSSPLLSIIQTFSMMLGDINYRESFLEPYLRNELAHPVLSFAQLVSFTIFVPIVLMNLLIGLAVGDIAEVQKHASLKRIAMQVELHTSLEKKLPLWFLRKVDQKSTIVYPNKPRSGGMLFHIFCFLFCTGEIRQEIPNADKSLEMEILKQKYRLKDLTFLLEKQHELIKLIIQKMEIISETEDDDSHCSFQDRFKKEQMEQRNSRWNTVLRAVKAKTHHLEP
method: In vitro inhibition of human TRPA1, whole cell patch configuration
Assay type: cell-based
applied conditions: current activation 10 μM AITC, tested concentrations 320 pM to 3.2 μM, read-out: hTRPA1 IC50
reported metric: IC50 (nM)
API: value field is a number in nM; no unit string.

molecule=Cc1cc(Cn2c(=O)c3c(ncn3CC(=O)Nc3cccc(N4CCC(C(C)(C)F)CC4)n3)n(C)c2=O)no1 quantitative_readout=23
molecule=Cc1cc(Cn2c(=O)c3c(ncn3CC(=O)Nc3csc(-c4cnc(C)c(C(F)(F)F)c4)n3)n(C)c2=O)no1 quantitative_readout=1
molecule="Cc1cc(Cn2c(=O)c3c(ncn3CC(=O)Nc3cccc(N4CC5CC5C4)n3)n(C)c2=O)no1 (stereo not shown)" quantitative_readout=62
molecule=Cc1cc(Cn2c(=O)c3c(ncn3CC(=O)Nc3ccc4ccccc4n3)n(C)c2=O)no1 quantitative_readout=404
molecule=Cc1noc(Cn2c(=O)c3c(ncn3[C@@H](C)C(=O)Nc3ccnc(-c4cnc(C(F)(F)F)c(C)c4)n3)n(C)c2=O)n1 quantitative_readout=4
molecule=CCC(=O)Cn1c(=O)c2c(ncn2[C@@H](C)C(=O)Nc2cccc(-c3cnc(OC)c(C(F)(F)F)c3)n2)n(C)c1=O quantitative_readout=1

Query string: Item under review: `Cc1ncc(-c2cccc(NC(=O)Cn3cnc4c3c(=O)n(CCO)c(=O)n4C)n2)cc1C(F)(F)F` . Reported IC50?
Result string: 236

====

target of assay: human TRPA1 (Homo sapiens (Human))
method: In vitro inhibition of human TRPA1, whole cell patch configuration
Format: cell-based
applied conditions: current activation 10 μM AITC, tested concentrations 320 pM to 3.2 μM, read-out: hTRPA1 IC50
pIC50: −log10 of the molar value.
Tag: class 1 if measured pIC50 is not below 8, class 0 if it is.

Here are 5 molecules together with their reported answers.
molecule="CC(=O)Cn1c(=O)c2c(ncn2[C@@H](C)C(=O)Nc2csc(-c3cnc(N4CCC[C@H]4C(F)(F)F)nc3)n2)n(C)c1=O [Compound 16]" category="class 1"
molecule="C[C@@H](C(=O)Nc1cccc(-c2cnc(C(F)(F)F)nc2)n1)n1cnc2c1c(=O)n(Cc1ccon1)c(=O)n2C [Compound 117]" category="class 0"
molecule="CCC(=O)Cn1c(=O)c2c(ncn2[C@@H](C)C(=O)Nc2csc(-c3cnc(N4CC5C(C4)C5(F)F)nc3)n2)n(C)c1=O (stereo partly shown) [Compound 57]" category="class 1"
molecule="COc1ncc(-c2cccc(NC(=O)[C@H](C)n3cnc4c3c(=O)n(Cc3cc(C)on3)c(=O)n4C)n2)cc1C(F)(F)F [Compound 121]" category="class 1"
molecule="CCC(=O)Cn1c(=O)c2c(ncn2CC(=O)Nc2csc(-c3cnc(C)c(C(F)(F)F)c3)n2)n(C)c1=O [Compound 247]" category="class 1"

Query string: Please indicate if the recorded pIC50 for CC(=O)Cn1c(=O)c2c(ncn2[C@@H](C)C(=O)Nc2csc(-c3ccc(N4CC5C(C4)C5(F)F)nc3)n2)n(C)c1=O (stereo partly shown) [Compound 79] meets or exceeds 8.
Result string: class 1

====

Each entry below carries its reported pIC50.
target of assay: human TRPA1 (Homo sapiens (Human))
method: In vitro inhibition of human TRPA1, whole cell patch configuration
Format: cell-based
applied conditions: current activation 10 μM AITC, tested concentrations 320 pM to 3.2 μM, read-out: hTRPA1 IC50
In simple prose, pIC50 is minus the logarithm base ten of a concentration in moles per litre.

Query string: Form field: pIC50 recorded for CC(=O)Cn1c(=O)c2c(ncn2[C@@H](C)C(=O)Nc2cccc(-c3ccc(N4CC5CC5C4)nc3)n2)n(C)c1=O (stereo partly drawn) with human TRPA1 (Homo sapiens (Human)) (enter value)
Result string: 7.85

Query string: How about `Cc1cc(Cn2c(=O)c3c(ncn3[C@@H](C)C(=O)Nc3csc(-c4cnc(C(F)(F)F)c(C)c4)n3)n(C)c2=O)no1` ?
Result string: 8.52

Query string: How about CC(=O)Cn1c(=O)c2c(ncn2[C@@H](C)C(=O)Nc2ccnc(-c3cnc(N4CC5C(C4)C5(F)F)nc3)n2)n(C)c1=O (stereo partly drawn) ?
Result string: 8.10
